Test system: MRC5
Assay: MRC5 CC50 (uM) Cytotoxicity
Assay type: functional
Conditions: Homo sapiens
For each of the compounds below, state its CC50.
The reply should contain only the number, in µM.

Using the record for C[C@H](c1ccc2c(c1)CCCC2)N(C)c1ncc2c(N)nc(N)nc2n1 , report its CC50.
7.1

Using the record for Cc1ccc(-c2cc(C(=O)Nc3cccnc3)c3cc(Br)ccc3n2)cc1 , report its CC50.
20

Using the record for c1ccc(Oc2ccc(-c3cc(N4CCNCC4)[nH]n3)cc2)cc1 , report its CC50.
16

Using the record for COc1ccc(Oc2ccc([C@@H](C)N(C)c3ncc4c(N)nc(N)nc4n3)cc2)cc1 , report its CC50.
5.4

Using the record for c1ccc(Oc2ccc(-c3cc(C4CCOCC4)[nH]n3)cc2)cc1 , report its CC50.
22.8

Using the record for CC1=Nc2ccc(Cl)cc2C(c2ccccc2)N1CCNC(=O)CN(C)C (stereo unspecified) , report its CC50.
16

Using the record for CO[C@@H](C(=O)N1Cc2[nH]nc(NC(=O)c3ccc(N4CCN(C)CC4)cc3)c2C1)c1ccccc1 , report its CC50.
2.7

Using the record for Cc1nc(-c2ccccn2)nc(N2CCC(Cc3ccccc3)C2)c1Cl (stereo unspecified) , report its CC50.
15.5

Using the record for CCc1nn(C)c(C(=O)NCc2ccc(Oc3ccc(C)cc3)cc2)c1Cl , report its CC50.
56

Using the record for Cc1nn(C)c(C)c1NS(=O)(=O)c1c(Cl)cc(-c2ccnc(N3CCNCC3)c2)cc1Cl , report its CC50.
2

###

For each of the molecules below, state its pIC50.
System: Plasmodium falciparum
Assay: Antimalarial activity: Asexual Blood Stage Plasmodium falciparum Dd2 IC50 (uM)
Format: functional, organism-based
pIC50 (log units): -log10 of the concentration in mol/L.

Using the record for Cc1cc(C)n(-c2ccc(NC(=O)C3CCN(Cc4cnc(C)s4)CC3)cc2)n1 , report its pIC50.
5.61

Using the record for Cc1nnc(NC(=O)c2cn(-c3ccccc3)nc2-c2ccccc2C)o1 , report its pIC50.
5.82

Using the record for COc1ccccc1C(C)NCC(=O)Nc1cc(C(F)(F)F)ccc1Cl (configuration not stated) , report its pIC50.
5.55

Using the record for Cc1cc(Nc2ccncc2)n2nc(C)c(-c3ccccc3Cl)c2n1 , report its pIC50.
6.16

Using the record for COc1ccccc1CNC(=O)c1cc(C2CC2)nc2c1cnn2C(C)C , report its pIC50.
5.82

Using the record for COc1ccc(-c2cncc3ccc(C(=O)NCCCn4ccnc4)nc23)cc1 , report its pIC50.
5.87

Using the record for COc1cc2ncnc(NC3CCN(Cc4ccccc4)CC3)c2cc1OC , report its pIC50.
6.01

Using the record for NS(=O)(=O)c1cccc(-c2ccc3ncc(N4CCOCC4)nc3c2)c1 , report its pIC50.
5.78

Using the record for CCc1cc(=O)n(C)c(SC(C)C(=O)Nc2ccc(F)cc2)n1 (configuration not stated) , report its pIC50.
5.70

Using the record for Cc1ccc2[nH]c3c(NCCN(C)C)ncnc3c2c1 , report its pIC50.
5.88

Using the record for COc1cncc(-c2cncc(N3CCN(c4ccncc4)CC3)n2)c1 , report its pIC50.
6.82

Using the record for O=C(NCCc1ccccc1)c1cc(-c2cccnc2)cnc1NCC1CC1 , report its pIC50.
5.64

Using the record for O=C1N(Cc2cc3ccccc3s2)CC2CN(Cc3ccccc3)CCN12 (configuration not stated) , report its pIC50.
5.90

Using the record for Cc1cc2ccccc2n1CC(=O)N1CC(C(=O)N2CCCCC2)Oc2ccccc21 (configuration not stated) , report its pIC50.
6.11

Using the record for COc1cc(OC)cc(C(=O)NCC2Cc3cc(Cl)cc(-c4ccncc4)c3O2)c1 (configuration not stated) , report its pIC50.
5.49

Using the record for Cc1cccc(C(=O)Nc2ccnc(N(C)C3CCN(CC(C)C)CC3)c2)c1 , report its pIC50.
5.29

Using the record for Cc1nn(C)cc1C(C)Nc1nncc(-c2ccc(C(F)(F)F)cc2)n1 (configuration not stated) , report its pIC50.
6.70

Using the record for COc1ccc(-c2cnc3ccc(NCc4ccc(S(N)(=O)=O)cc4)nn23)cn1 , report its pIC50.
6.09

Using the record for CCCS(=O)(=O)N1CCC(CO)(Cc2ccccc2C(F)(F)F)CC1 , report its pIC50.
6.00
